This collection of values is drawn from patent US20250215010A1.

Recorded pIC50, one value per entry.
# System Tested: MMP1 (Homo sapiens)
# Sequence (P03956 100-269 limits assumed): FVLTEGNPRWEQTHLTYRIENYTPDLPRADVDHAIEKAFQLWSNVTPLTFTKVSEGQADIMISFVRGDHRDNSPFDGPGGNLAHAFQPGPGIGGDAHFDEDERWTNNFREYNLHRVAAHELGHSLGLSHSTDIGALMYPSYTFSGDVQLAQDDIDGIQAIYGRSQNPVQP
# Assay Explanation: MMP-1 colorimetric inhibition assay (Enzo kit BML-AK404)
# Format: biochemical
# Condition Label: thiopeptide substrate, absorbance 415 nm; read-out: MMP 1 IC50 class
pIC50: −log10 of the molar value.

- Query Smiles: "COC(=O)N1[C@@H]2CC[C@H]1[C@H](C(=O)NO)N(S(=O)(=O)c1ccc(Oc3ccc(F)cc3)nc1)C2"
  System Tested: "MMP1 (Homo sapiens)"
  pIC50: "5.00 to 6.00"
- Query Smiles: "CC(C)(C)C(=O)N1[C@@H]2CC[C@H]1[C@H](C(=O)NO)N(S(=O)(=O)c1ccc(Oc3ccc(OC(F)(F)F)cc3)nc1)C2"
  System Tested: "MMP1 (Homo sapiens)"
  pIC50: "5.00 to 6.00"
- Query Smiles: "COCCOC(=O)N1[C@@H]2CC[C@H]1[C@H](C(=O)NO)N(S(=O)(=O)c1ccc(Oc3ccc(F)cc3F)nc1)C2"
  System Tested: "MMP1 (Homo sapiens)"
  pIC50: "6.00 to 7.30"
- Query Smiles: "COCCOC(=O)N1[C@@H]2CC[C@H]1[C@H](C(=O)NO)N(S(=O)(=O)c1ccc(Oc3cnn(C(C)C)c3)nc1)C2"
  System Tested: "MMP1 (Homo sapiens)"
  pIC50: "5.00 to 6.00"
- Query Smiles: "CC(=O)N1[C@@H]2CC[C@H]1[C@H](C(=O)NO)N(S(=O)(=O)c1ccc(Oc3ccc(F)cc3)nc1)C2"
  System Tested: "MMP1 (Homo sapiens)"
  pIC50: "6.00 to 7.30"
- Query Smiles: "CCc1ccc(Oc2ccc(S(=O)(=O)N3C[C@H]4CC[C@@H]([C@@H]3C(=O)NO)N4C(=O)OCCOC)cn2)cc1"
  System Tested: "MMP1 (Homo sapiens)"
  pIC50: "5.00 to 6.00"
- Query Smiles: "CCN1CCC(Oc2ccc(S(=O)(=O)N3C[C@H]4CC[C@@H]([C@@H]3C(=O)NO)N4C(=O)OCCOC)cn2)CC1"
  System Tested: "MMP1 (Homo sapiens)"
  pIC50: "< 5.00"
- Query Smiles: "COCCOC(=O)N1[C@@H]2CC[C@H]1[C@H](C(=O)NO)N(S(=O)(=O)N1CCC(Oc3ccc(C(F)(F)F)cc3)CC1)C2"
  System Tested: "MMP1 (Homo sapiens)"
  pIC50: "5.00 to 6.00"
- Query Smiles: "COCCOC(=O)N1[C@@H]2CC[C@H]1[C@H](C(=O)NO)N(S(=O)(=O)N1CCN(Cc3ccc(Cl)cc3)CC1)C2"
  System Tested: "MMP1 (Homo sapiens)"
  pIC50: "< 5.00"
- Query Smiles: "COCCOC(=O)N1[C@@H]2CC[C@H]1[C@H](C(=O)NO)N(S(=O)(=O)c1ccc(Oc3ccc(F)cc3)nc1)C2"
  System Tested: "MMP1 (Homo sapiens)"
  pIC50: "6.00 to 7.30"
- Query Smiles: "COCCOC(=O)N1[C@@H]2CC[C@H]1[C@H](C(=O)NO)N(S(=O)(=O)c1ccc(Oc3ccc(OC(F)(F)F)cc3)nc1)C2"
  System Tested: "MMP1 (Homo sapiens)"
  pIC50: "5.00 to 6.00"
- Query Smiles: "CCn1cc(Oc2ccc(S(=O)(=O)N3C[C@H]4CC[C@@H]([C@@H]3C(=O)NO)N4C(=O)OCCOC)cn2)cn1"
  System Tested: "MMP1 (Homo sapiens)"
  pIC50: "6.00 to 7.30"
- Query Smiles: "CCC(=O)N1[C@@H]2CC[C@H]1[C@H](C(=O)NO)N(S(=O)(=O)c1ccc(Oc3ccc(OC(F)(F)F)cc3)nc1)C2"
  System Tested: "MMP1 (Homo sapiens)"
  pIC50: "5.00 to 6.00"

----------
Let's look at some compounds and their measured pIC50.
# System Tested: ADAM17 (TACE) (Homo sapiens)
# Sequence (P78536 215-477 limits assumed): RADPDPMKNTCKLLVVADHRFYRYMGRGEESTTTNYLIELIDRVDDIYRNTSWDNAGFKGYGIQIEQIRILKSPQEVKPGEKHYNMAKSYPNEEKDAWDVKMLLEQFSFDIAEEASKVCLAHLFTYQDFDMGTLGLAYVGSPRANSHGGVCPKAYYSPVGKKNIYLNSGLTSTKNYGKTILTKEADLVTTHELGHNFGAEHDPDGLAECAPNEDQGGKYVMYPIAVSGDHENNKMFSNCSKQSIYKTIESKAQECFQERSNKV
# Assay Explanation: TACE fluorometric inhibition assay (Enzo kit BML-AK310)
# Type: biochemical
# Condition Label: quenched fluorogenic peptide, ex/em 320/420 nm; read-out: TACE IC50 class
pIC50: −log10 of the molar value.
Measurement Name: pIC50

- Query Smiles: "COCCOC(=O)N1[C@@H]2CC[C@H]1[C@H](C(=O)NO)N(S(=O)(=O)c1ccc(Oc3cnn(C(C)C)c3)nc1)C2"
  Measurement Name: "pIC50"
  Obs Value: "6.00 to 7.30"
- Query Smiles: "COc1ccc(Oc2ccc(S(=O)(=O)N3C[C@H]4CC[C@@H]([C@@H]3C(=O)NO)N4C(C)=O)cn2)cc1F"
  Measurement Name: "pIC50"
  Obs Value: "5.00 to 6.00"
- Query Smiles: "COCCOC(=O)N1[C@@H]2CC[C@H]1[C@H](C(=O)NO)N(S(=O)(=O)c1ccc(Oc3ccc(C)nc3)nc1)C2"
  Measurement Name: "pIC50"
  Obs Value: "5.00 to 6.00"
- Query Smiles: "CCOC(=O)N1[C@@H]2CC[C@H]1[C@H](C(=O)NO)N(S(=O)(=O)c1ccc(Oc3ccc(F)cc3)nc1)C2"
  Measurement Name: "pIC50"
  Obs Value: "5.00 to 6.00"

----------
# System Tested: MMP9 (Homo sapiens)
# Sequence (P14780 94-707): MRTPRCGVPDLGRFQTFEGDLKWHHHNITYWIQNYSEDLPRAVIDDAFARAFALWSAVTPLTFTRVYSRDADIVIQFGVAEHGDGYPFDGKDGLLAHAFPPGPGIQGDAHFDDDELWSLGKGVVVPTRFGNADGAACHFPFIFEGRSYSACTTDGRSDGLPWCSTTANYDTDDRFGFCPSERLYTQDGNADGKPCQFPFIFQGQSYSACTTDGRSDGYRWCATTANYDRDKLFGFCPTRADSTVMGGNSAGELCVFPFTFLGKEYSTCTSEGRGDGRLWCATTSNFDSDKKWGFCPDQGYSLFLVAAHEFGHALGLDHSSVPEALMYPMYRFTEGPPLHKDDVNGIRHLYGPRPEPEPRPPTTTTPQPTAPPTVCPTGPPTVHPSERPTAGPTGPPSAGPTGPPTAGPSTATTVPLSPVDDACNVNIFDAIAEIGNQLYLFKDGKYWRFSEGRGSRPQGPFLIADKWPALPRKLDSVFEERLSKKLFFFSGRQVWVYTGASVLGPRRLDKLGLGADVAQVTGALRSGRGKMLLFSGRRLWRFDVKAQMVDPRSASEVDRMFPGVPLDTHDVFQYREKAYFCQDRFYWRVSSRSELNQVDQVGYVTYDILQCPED
# Assay Explanation: MMP-9 colorimetric inhibition assay (Enzo kit BML-AK410)
# Assay type: biochemical
# Condition Label: thiopeptide substrate, absorbance 415 nm; read-out: MMP 9 IC50 class

- Molecule: "COCCOC(=O)N1[C@@H]2CC[C@H]1[C@H](C(=O)NO)N(S(=O)(=O)c1ccc(Oc3ccc(OC(C)(C)C)cc3)nc1)C2 [Example 31]"
  IC50: "< 0.05 µM"
- Molecule: "COCCOC(=O)N1[C@@H]2CC[C@H]1[C@H](C(=O)NO)N(S(=O)(=O)c1cc(F)c(Oc3cnn(C)c3)c(F)c1)C2 [Example 42]"
  IC50: "0.05 to 1 µM"
- Molecule: "COCCOC(=O)N1[C@@H]2CC[C@H]1[C@H](C(=O)NO)N(S(=O)(=O)c1ccc(OC3CCCCC3)nc1)C2 [Example 10]"
  IC50: "< 0.05 µM"
- Molecule: "COCCOC(=O)N1[C@@H]2CC[C@H]1[C@H](C(=O)NO)N(S(=O)(=O)c1ccc(Oc3cnn(C)c3)c(F)c1)C2 [Example 41]"
  IC50: "< 0.05 µM"

----------
# System Tested: MMP13 (Homo sapiens)
# Construct: purchased Enzo Life Sciences, Inc. BML-AK412
# Assay Explanation: MMP-13 colorimetric inhibition assay (Enzo kit BML-AK412)
# Format: biochemical
# Condition Label: thiopeptide substrate, absorbance 415 nm; read-out: MMP 13 IC50 class
# Method: The inhibitory activities of the compounds of the invention were assessed in 96-well microplate format using MMP1, MMP2, MMP9 and MMP13 colorimetric assay kits and TACE fluorometric assay kit from Enzo Life Sciences, Inc. The inhibitory effect of the compounds of the invention on ADAM10 activity were evaluated in 96-well microplate format using fluorometric assay from AnaSpec, Inc. […]

- Compound: "CC(=O)N1[C@@H]2CC[C@H]1[C@H](C(=O)NO)N(S(=O)(=O)N1CCC(Oc3ccnc(C(F)(F)F)c3)CC1)C2 [Example 64]"
  IC50: "50 to 1000 nM"
- Compound: "CCc1ccc(Oc2ccc(S(=O)(=O)N3C[C@H]4CC[C@@H]([C@@H]3C(=O)NO)N4C(=O)OCCOC)cn2)cc1 [Example 33]"
  IC50: "< 50 nM"
- Compound: "COCCOC(=O)N1[C@@H]2CC[C@H]1[C@H](C(=O)NO)N(S(=O)(=O)N1CCC(Oc3ccc(Cl)cc3)CC1)C2 [Example 44]"
  IC50: "< 50 nM"

----------
# System Tested: MMP13 (Homo sapiens, UniProt P45452)
# Construct: purchased Enzo Life Sciences, Inc. BML-AK412
# Assay Explanation: MMP-13 colorimetric inhibition assay (Enzo kit BML-AK412)
# Assay type: biochemical
# Condition Label: thiopeptide substrate, absorbance 415 nm; read-out: MMP 13 IC50 class
pIC50: −log10 of the molar value.
Reported values of pIC50 for individual entries

- Query Smiles: "COCCOC(=O)N1[C@@H]2CC[C@H]1[C@H](C(=O)NO)N(S(=O)(=O)c1ccc(-c3cccc(F)c3)nc1)C2"
  pIC50: "6.00 to 7.30"
- Query Smiles: "COc1ccc(Oc2ccc(S(=O)(=O)N3C[C@H]4CC[C@@H]([C@@H]3C(=O)NO)N4C(=O)N3CCOCC3)cn2)cc1F"
  pIC50: "> 7.30"
- Query Smiles: "COCCOC(=O)N1[C@@H]2CC[C@H]1[C@H](C(=O)NO)N(S(=O)(=O)c1ccc(Oc3cnn(C)c3)c(F)c1)C2"
  pIC50: "> 7.30"
- Query Smiles: "CC(C)Oc1ccc(Oc2ccc(S(=O)(=O)N3C[C@H]4CC[C@@H]([C@@H]3C(=O)NO)N4C(=O)C(C)(C)C)cn2)cc1"
  pIC50: "> 7.30"
- Query Smiles: "COCCOC(=O)N1[C@@H]2CC[C@H]1[C@H](C(=O)NO)N(S(=O)(=O)c1ccc(Oc3cnn(CC(C)C)c3)nc1)C2"
  pIC50: "6.00 to 7.30"
- Query Smiles: "O=C(NO)[C@H]1[C@@H]2CC[C@H](CN1S(=O)(=O)c1ccc(Oc3ccc(F)cc3)nc1)N2C(=O)N1CCOCC1"
  pIC50: "> 7.30"
